Parameter: clearance. Scope: all listed entries.
test: Plasma clearance in rat; assay type: ADME, organism-based
Output spec: scalar in mL/min/kg, unitless text.

response.value for Cc1ncc(-c2ccnc(Nc3ccc(N4CCN(C(=O)CO)CC4)cc3)n2)n1C(C)C (field: clearance) = 15

response.value for Cc1ncc(-c2nc(Nc3ccc(N4CCN(C(=O)CO)CC4)cc3)ncc2F)n1C(C)C (field: clearance) = 16

response.value for Cc1ncc(-c2nc(Nc3ccc(N4CCOCC4)cc3)ncc2F)n1C(C)C (field: clearance) = 26

###

As a worked illustration, we turn to pIC50 data collected for Voltage-gated inwardly rectifying potassium channel KCNH2 (Homo sapiens).
pIC50 is defined as minus the log10 of a concentration measured in mol/L.

// known answers, use as guide
compound_smiles	tested_system	meas_value
Cc1ncc(-c2nc(Nc3ccc(N4CCOCC4)cc3)ncc2F)n1C(C)C	Voltage-gated inwardly rectifying potassium channel KCNH2 (Homo sapiens)	4.96
Cc1ncc(-c2ccnc(Nc3ccc(N4CCN(S(=O)(=O)CCN(C)C)CC4)cc3)n2)n1C(C)C	Voltage-gated inwardly rectifying potassium channel KCNH2 (Homo sapiens)	4.74

Now look at this entry.
Noted pIC50 for Cc1ncc(-c2ccnc(Nc3ccc(N4CCN(S(C)(=O)=O)CC4)cc3)n2)n1C(C)C , tested on Voltage-gated inwardly rectifying potassium channel KCNH2 (Homo sapiens): 5.26

###

Parameter: pIC50. Scope: all listed entries.
molecular target: Cyclin-dependent kinase 2 (Homo sapiens); assay: Inhibition of CDK2/Cyclin E
pIC50 is defined as minus the log10 of a concentration measured in mol/L.

// known answers, use as guide
compound_smiles	meas_value
Cc1ncc(-c2nc(Nc3ccc(N4CCOCC4)cc3)ncc2F)n1C(C)C	8.10
Cc1ncc(-c2ccnc(Nc3ccc(N4CCN(S(=O)(=O)CCN(C)C)CC4)cc3)n2)n1C(C)C	8.52
Cc1ncc(-c2ccnc(Nc3ccc(N4CCN(C(=O)CN(C)C)CC4)cc3)n2)n1C(C)C	7.80

response.value for COc1ccc(Nc2nccc(-c3cnc(C)n3C(C)C)n2)cc1 (field: pIC50) = 8.10

response.value for Cc1ncc(-c2ccnc(Nc3ccc(N4CCOCC4)cc3)n2)n1C(C)C (field: pIC50) = 8.05

###

assay: Oral bioavailability in rat; type: ADME, organism-based; settings: in vivo
Parameter: bioavailability. Scope: all listed entries.

compound_smiles	bioavailability
Cc1ncc(-c2nc(Nc3ccc(N4CCN(C(=O)CO)CC4)cc3)ncc2F)n1C(C)C	67%
Cc1ncc(-c2ccnc(Nc3ccc(N4CCN(C(=O)CO)CC4)cc3)n2)n1C(C)C	59%

Now look at this entry.
response.value for Cc1ncc(-c2nc(Nc3ccc(N4CCOCC4)cc3)ncc2F)n1C(C)C (field: bioavailability) = 34%

###

test: Volume of distribution at steady state in rat; type: ADME, organism-based; details: in vivo, read-out: Vdss
Parameter: Vd. Scope: all listed entries.
Output spec: scalar in L/kg, unitless text.

// known answers, use as guide
compound_smiles	assay_readout	meas_value
Cc1ncc(-c2nc(Nc3ccc(N4CCOCC4)cc3)ncc2F)n1C(C)C	Vd	1.3
Cc1ncc(-c2nc(Nc3ccc(N4CCN(C(=O)CO)CC4)cc3)ncc2F)n1C(C)C	Vd	1

Now look at this entry.
response.value for Cc1ncc(-c2ccnc(Nc3ccc(N4CCN(C(=O)CO)CC4)cc3)n2)n1C(C)C (field: Vd) = 2.5
